molecular target: G1 APOL1 (Homo sapiens, UniProt O14791, I384M/S342G); construct: expressed in transfected cells; test: Acute APOL1 Thallium Assay with inducible stable clones of HEK 293 cells; assay type: cell-based; details: HEK 293 T-Rex cells expressing G1 APOL1; read-out: Thallium Assay (IC50)
Sequence (O14791 28-398 S342G/I384M): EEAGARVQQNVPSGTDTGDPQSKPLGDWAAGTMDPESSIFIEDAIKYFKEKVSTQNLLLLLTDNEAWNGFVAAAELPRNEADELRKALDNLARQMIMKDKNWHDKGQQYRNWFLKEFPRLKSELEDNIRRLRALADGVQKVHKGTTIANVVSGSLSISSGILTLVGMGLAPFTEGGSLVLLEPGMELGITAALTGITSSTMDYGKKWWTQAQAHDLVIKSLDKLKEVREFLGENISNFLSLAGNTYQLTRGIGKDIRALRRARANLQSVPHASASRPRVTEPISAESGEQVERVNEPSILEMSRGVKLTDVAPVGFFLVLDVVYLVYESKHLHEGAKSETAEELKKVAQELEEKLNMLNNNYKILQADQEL
pIC50: −log10 of the molar value.
pIC50 overview

{"columns": ["smilesRepr", "pIC50"],
 "data": [
  ["O=C(NC1(CCO)CC1)[C@H]1C[C@H](c2c(-c3ccc(F)cc3)[nH]c3c(F)cc(F)cc32)C1", "6.00 to 6.60"],
  ["CC(C)(O)C1CN(C(=O)[C@H]2C[C@H](c3c(-c4ccc(F)cc4)[nH]c4c(F)cc(F)cc43)C2)C1", "< 6.00"],
  ["O=C(N[C@H]1CCOC1)[C@H]1C[C@@H](c2c(-c3ccc(F)cc3)[nH]c3c(F)cc(F)cc32)C1", "< 6.00"]
]}

// provenance: patent US12116343B2
